tested on: TTR mRNA; test: TTR mRNA knockdown (quantitative PCR) in primary human hepatocytes treated with LNPs; format: cell-based; conditions: PHH; LNP dose 300 ng mRNA cargo; gRNA:mRNA 1:2; 96 h; biological triplicates; vs untreated control
Strand notation (5' to 3'): a small letter for the sugar, then the base; units joined by * are phosphorothioate-linked, units joined directly phosphodiester-linked; [ ] holds rarer units or linkages, { } end groups; capitals alone tell only the bases. m = 2'-O-methyl; r = 2'-OH (RNA)
Entry flag: satisfied if Avg % Knockdown (TTR mRNA) reaches 90%; not satisfied if it does not.

# Molecule, Classification
rows = [
    ("G000500: TTR sgRNA modified sequence, Human, SEQ ID NO: 107; guide sequence of CR003337 (nucleic acid) guide: mC*mC*mA*rGrUrCrCrArGrCrArArGrGrCrArGrArGrGrGrUrUrUrUrArGrAmGmCmUmAmGmAmAmAmUmAmGmCrArArGrUrUrArArArArUrArArGrGrCrUrArGrUrCrCrGrUrUrArUrCrAmAmCmUmUmGmAmAmAmAmAmGmUmGmGmCmAmCmCmGmAmGmUmCmGmGmUmGmCmU*mU*mU*mU", "satisfied"),
    ("G000568: TTR sgRNA modified sequence, Human, SEQ ID NO: 110; guide sequence of CR003391 (nucleic acid) guide: mG*mG*mC*rUrGrUrCrGrUrCrArCrCrArArUrCrCrCrArGrUrUrUrUrArGrAmGmCmUmAmGmAmAmAmUmAmGmCrArArGrUrUrArArArArUrArArGrGrCrUrArGrUrCrCrGrUrUrArUrCrAmAmCmUmUmGmAmAmAmAmAmGmUmGmGmCmAmCmCmGmAmGmUmCmGmGmUmGmCmU*mU*mU*mU", "not satisfied"),
    ("G000480: TTR sgRNA modified sequence, Human, SEQ ID NO: 87; guide sequence of CR003353 (nucleic acid) guide: mA*mA*mA*rGrGrCrUrGrCrUrGrArUrGrArCrArCrCrUrGrUrUrUrUrArGrAmGmCmUmAmGmAmAmAmUmAmGmCrArArGrUrUrArArArArUrArArGrGrCrUrArGrUrCrCrGrUrUrArUrCrAmAmCmUmUmGmAmAmAmAmAmGmUmGmGmCmAmCmCmGmAmGmUmCmGmGmUmGmCmU*mU*mU*mU", "satisfied"),
    ("G000490: TTR sgRNA modified sequence, Human, SEQ ID NO: 97; guide sequence of CR003366 (nucleic acid) guide: mA*mA*mA*rUrArGrArCrArCrCrArArArUrCrUrUrArCrGrUrUrUrUrArGrAmGmCmUmAmGmAmAmAmUmAmGmCrArArGrUrUrArArArArUrArArGrGrCrUrArGrUrCrCrGrUrUrArUrCrAmAmCmUmUmGmAmAmAmAmAmGmUmGmGmCmAmCmCmGmAmGmUmCmGmGmUmGmCmU*mU*mU*mU", "not satisfied"),
]
